Values were extracted from paper PMC5673027.

Target: CDK1/cyclin B1 (Homo sapiens, UniProt P06493)
Sequence (P14635 whole entry): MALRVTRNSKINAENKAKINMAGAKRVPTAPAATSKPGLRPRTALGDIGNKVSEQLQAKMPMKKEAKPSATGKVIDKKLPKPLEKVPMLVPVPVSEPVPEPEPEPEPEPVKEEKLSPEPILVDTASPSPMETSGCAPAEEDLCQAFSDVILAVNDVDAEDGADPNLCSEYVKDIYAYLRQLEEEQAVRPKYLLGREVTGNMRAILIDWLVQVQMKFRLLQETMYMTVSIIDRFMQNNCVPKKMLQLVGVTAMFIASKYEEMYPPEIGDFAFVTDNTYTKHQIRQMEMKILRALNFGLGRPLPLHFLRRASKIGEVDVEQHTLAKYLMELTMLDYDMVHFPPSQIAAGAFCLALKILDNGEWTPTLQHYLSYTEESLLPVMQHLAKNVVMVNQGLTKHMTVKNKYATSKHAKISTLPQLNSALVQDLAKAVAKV
Sequence (P06493 whole entry): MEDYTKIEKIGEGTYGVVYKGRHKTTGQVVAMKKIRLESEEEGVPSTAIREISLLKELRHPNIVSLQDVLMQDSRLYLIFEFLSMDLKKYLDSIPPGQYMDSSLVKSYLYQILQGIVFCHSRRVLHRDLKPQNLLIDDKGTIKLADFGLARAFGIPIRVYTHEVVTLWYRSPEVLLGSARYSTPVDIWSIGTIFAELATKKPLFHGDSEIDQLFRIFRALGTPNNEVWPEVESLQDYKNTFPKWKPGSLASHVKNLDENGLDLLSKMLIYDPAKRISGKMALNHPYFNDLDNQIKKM
Experiment: In vitro CDK1 kinase assay
Format: biochemical
Conditions: CDK1 IC50, text; dose-dependent inhibition, Fig. 1E-H
Metric: IC50 (µM)

INSERT INTO results (compound, metric, reading) VALUES
  ('O=C(O)c1c(O)cccc1O [2,6-DHBA, 2,6-dihydroxybenzoic acid]', 'IC50', 365),
  ('O=C(O)c1cccc(O)c1O [2,3-DHBA, 2,3-dihydroxy-benzoic acid]', 'IC50', 386);

* * *

Biological target: CDK1/cyclin B1 (Homo sapiens, UniProt P06493)
Experiment: In vitro CDK1 kinase assay
Type: biochemical
Conditions: CDK1 IC50, Table III, purified CDK1 enzyme
pIC50: −log10 of the molar value.
Metric: pIC50

INSERT INTO measurements (molecule, metric, reading) VALUES
  ('O=C(O)c1cccc(O)c1O [2,3-DHBA, 2,3-dihydroxy-benzoic acid]', 'pIC50', 3.41);

a: O=C(O)c1c(O)cccc1O [2,6-DHBA, 2,6-dihydroxybenzoic acid]
b: O=C(O)c1c(O)cc(O)cc1O [2,4,6-THBA, 2,4,6-trihydroxybenzoic acid]
I need your help: which of the pair a , b has higher pIC50? State your choice using its label.
b
(b: 3.65, a: 3.44)

* * *

Biological target: CDK6/cyclin D1 (Homo sapiens)
Sequence (Q00534 whole entry): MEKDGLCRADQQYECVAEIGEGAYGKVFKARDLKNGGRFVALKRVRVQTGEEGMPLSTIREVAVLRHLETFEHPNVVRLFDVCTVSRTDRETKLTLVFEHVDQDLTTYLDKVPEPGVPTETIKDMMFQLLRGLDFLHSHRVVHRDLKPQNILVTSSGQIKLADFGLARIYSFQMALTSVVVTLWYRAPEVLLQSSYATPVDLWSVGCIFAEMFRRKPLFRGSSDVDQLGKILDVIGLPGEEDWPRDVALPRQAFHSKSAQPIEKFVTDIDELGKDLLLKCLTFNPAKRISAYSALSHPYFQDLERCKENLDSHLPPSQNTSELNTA
Sequence (P24385 whole entry partner): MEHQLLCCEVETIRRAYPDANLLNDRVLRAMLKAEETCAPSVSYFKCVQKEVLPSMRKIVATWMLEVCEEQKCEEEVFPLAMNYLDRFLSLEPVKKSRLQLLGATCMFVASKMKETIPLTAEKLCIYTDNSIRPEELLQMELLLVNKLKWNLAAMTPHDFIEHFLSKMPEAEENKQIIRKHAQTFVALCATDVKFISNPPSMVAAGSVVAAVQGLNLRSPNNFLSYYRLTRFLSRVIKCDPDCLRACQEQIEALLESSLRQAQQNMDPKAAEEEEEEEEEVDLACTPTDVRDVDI
Assay: In vitro CDK6 kinase assay
Type: biochemical
Conditions: 0.5 mM (Fig. 7G, H); Rb substrate
Metric: effect on CDK6 enzyme activity (in words)

INSERT INTO assay_data (compound, reading) VALUES
  ('CC(=O)Oc1ccccc1C(=O)O', 'did not affect'),
  ('O=C(O)c1c(O)cccc1O [2,6-DHBA, 2,6-dihydroxybenzoic acid]', 'inhibited'),
  ('O=C(O)c1c(O)cc(O)cc1O [2,4,6-THBA, 2,4,6-trihydroxybenzoic acid]', 'inhibited'),
  ('O=C(O)c1ccccc1O [Salicylic acid, reference compound]', 'did not affect');

Now examine the next entry.
Could you share which effect on CDK6 enzyme activity (in words) value was measured for O=C(O)c1cccc(O)c1O [2,3-DHBA, 2,3-dihydroxy-benzoic acid] ?
inhibited

* * *

Molecular target: CDK1/cyclin B1 (Homo sapiens, UniProt P06493)
Experiment: In vitro CDK1 kinase assay
Type: biochemical
Details: quantification of band intensities, Fig. 1C/D; H1 histones
Metric: inhibition of CDK1 enzyme activity (%)

Solved cases (2 shown):
INSERT INTO measurements (compound, value_units, reading) VALUES
  ('O=C(O)c1c(O)cccc1O [2,6-DHBA, 2,6-dihydroxybenzoic acid]', '%', 65),
  ('O=C(O)c1cc(O)ccc1O [2,5-DHBA, 2,5-dihydroxybenzoic acid]', '%', 22);

a: O=C(O)c1cccc(O)c1O [2,3-DHBA, 2,3-dihydroxy-benzoic acid]
b: O=C(O)c1ccc(O)cc1O [2,4-DHBA, 2,4-dihydroxybenzoic acid]
I need your help: which of the pair a , b has higher inhibition of CDK1 enzyme activity? State your choice using its label.
a
